Data credit: patent US20250042994A1

Target: T1, Human CD19-his protein (human, UniProt P15391 20-291)
T1 construct: bought protein; also called human CD19 protein; recombinant human CD19-His; not shown: His tag
T1 sequence (looked up): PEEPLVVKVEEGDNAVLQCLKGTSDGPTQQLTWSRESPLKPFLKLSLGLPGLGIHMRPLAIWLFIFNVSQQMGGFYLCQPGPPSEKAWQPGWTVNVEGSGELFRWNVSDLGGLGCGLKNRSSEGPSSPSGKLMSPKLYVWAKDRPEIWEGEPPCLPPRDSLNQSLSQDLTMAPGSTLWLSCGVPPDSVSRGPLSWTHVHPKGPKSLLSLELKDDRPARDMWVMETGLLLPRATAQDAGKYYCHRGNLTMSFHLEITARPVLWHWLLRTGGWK
Test Name: ELISA, antibody at 0.001 nM
Readout: OD450
Provide a numeric answer; units are not to be included.

Binder	OD450
F4.15.9 (antibody, human IgG1, V domains shown, human-murine chimeric antibody, human IgG1) VH: QVQLQQSGPELVKPGASVKISCKASGYAFSSSWMNWLKQRPGQGLEWIGRIYPGDGDTNYNGKFKGKATLTADESSSTAYMQLSSLTSVDSAVYFCARGITTIITIAWFASWGQGTLVTVSA VL: QIVLSQSPTILSASPGEKVTMTCRASSSVSYMHWYQQKPGSSPKPWIYATSNLASGVPPRFSGSGSGTSYSLTISRVGAEDAATYYCQQWSSDPWTFGGGTKLEIK	0.08
F4.276.12 (antibody, human IgG1, V domains shown, human-murine chimeric antibody, human IgG1) VH: EIQLQQSGPELVKPGASVKVSCKASGYAFSAYNMYWVKQSHGKSLEWIGYIDPYNGGTNYNQKFKGKATLTVDKSSSTAYMHLNSLTSEDSAVYYCARDGYEVTYWGQGTLVTVSA VL: QIVLTQSPALMSASLGEEITLTCSASSSVTYMHWSQQKSGTSPRLLIYSTSNLASGVPSRFSGSGSGTFYSLTISSVEAEDAADYYCHQWSSYPWTFGGGTKLEIK	0.06

Task item: Given F3.113.16 (antibody, human IgG1, V domains shown, human-murine chimeric antibody, human IgG1) VH: QVQLQQPGAELVKPGASVKLSCKASGYTFTNYWMQWVKQRPGQGLEWIGEIDPSDSYINYNQKFKGKATLTADTSSSTAYMQLSSLTYEDSAVYYCARPVTVPWYFDVWGTGTTVTVSS VL: EIVLTQSPTTMAASPGEKITITCSATSSISSNYLHWYQQKPGFSPKLLIYRTSNLASGVPARFSGSGSGTSYSLTIGTMEAEDVATYYCQQGSAIPRIFTFGSGTKLEIK , respond with its OD450.
Reply: 0.05
